Cited source for all entries: paper PMC10786891

Molecular target: T1, EsCas13d, nuclease-dead (Eubacterium siraeum, UniProt B0MS50, R295A;H300A;R849A;H854A)
T1 sequence: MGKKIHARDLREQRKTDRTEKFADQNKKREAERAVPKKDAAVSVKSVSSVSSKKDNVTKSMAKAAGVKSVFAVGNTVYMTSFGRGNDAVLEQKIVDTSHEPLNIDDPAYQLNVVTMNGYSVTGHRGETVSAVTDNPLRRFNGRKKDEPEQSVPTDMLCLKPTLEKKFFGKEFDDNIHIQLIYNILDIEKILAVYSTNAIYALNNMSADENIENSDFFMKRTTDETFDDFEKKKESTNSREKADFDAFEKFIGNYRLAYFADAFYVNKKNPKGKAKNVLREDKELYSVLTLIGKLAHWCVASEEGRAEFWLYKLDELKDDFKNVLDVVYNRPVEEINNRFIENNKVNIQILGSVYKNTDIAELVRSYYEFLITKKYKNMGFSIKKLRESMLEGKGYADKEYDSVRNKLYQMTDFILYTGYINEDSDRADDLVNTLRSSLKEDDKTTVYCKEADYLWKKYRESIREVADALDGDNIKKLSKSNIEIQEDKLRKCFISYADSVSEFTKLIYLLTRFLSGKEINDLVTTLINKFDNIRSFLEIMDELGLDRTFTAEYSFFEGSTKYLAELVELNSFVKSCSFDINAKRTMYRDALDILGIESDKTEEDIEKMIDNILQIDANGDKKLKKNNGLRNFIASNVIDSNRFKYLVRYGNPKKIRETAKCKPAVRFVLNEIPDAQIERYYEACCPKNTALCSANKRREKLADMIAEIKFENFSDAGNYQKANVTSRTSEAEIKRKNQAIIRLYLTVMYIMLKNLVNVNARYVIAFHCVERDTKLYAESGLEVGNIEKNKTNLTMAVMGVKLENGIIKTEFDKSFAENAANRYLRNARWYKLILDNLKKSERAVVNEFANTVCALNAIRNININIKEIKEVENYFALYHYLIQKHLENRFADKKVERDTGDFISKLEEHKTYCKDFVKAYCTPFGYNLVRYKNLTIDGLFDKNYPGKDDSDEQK
Assay: crRNA (strand 1, pre-loaded); Mg2+; 40 mM Tris-HCl pH 7.5, 150 mM NaCl, 6 mM MgCl2, 1 mM DTT, 0.1% Tween-20, 0.2 mg/ml BSA; 25 C; 10 min per concentration, then washed
Details: tags: His6-TwinStrep-SUMO cleaved; N-terminal SNAP kept (SNAP-Surface 488); label: 3' end held by stalled T7 RNA polymerase
Please provide measured Kd for the entries that follow.
Output spec: scalar in nM, unitless text.

The measured Kd associated with target 3 C1A,A9G (mixed) RNA 1: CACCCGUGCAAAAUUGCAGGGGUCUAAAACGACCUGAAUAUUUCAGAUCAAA RNA 2: GGGAAUGGAUCCACAUCUACGAAUUCGUUUUUGAUCUGAAAUGUUCAGGUAUGCAGAUCGGAAGAGCACACGU reads 61

The measured Kd associated with target 1 insG 3' of 14,insA 3' of 10 (mixed) RNA 1: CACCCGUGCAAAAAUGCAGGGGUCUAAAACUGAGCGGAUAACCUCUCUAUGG RNA 2: GGGAAUGGAUCCACAUCUACGAAUUCGUACCAUAGAGAGGGUUAAUCCGCUCACCGAGAUCGGAAGAGCACACGU reads 30.3

The measured Kd associated with target 1 insU 3' of 22,insA 3' of 8 (mixed) RNA 1: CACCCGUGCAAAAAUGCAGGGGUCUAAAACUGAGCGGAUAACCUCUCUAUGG RNA 2: GGGAAUGGAUCCACAUCUACGAAUUCGUACUCAUAGAGAGGUUAUACCGCUCACCGAGAUCGGAAGAGCACACGU reads 58

The measured Kd associated with target 1 insU 3' of 21,insA 3' of 8 (mixed) RNA 1: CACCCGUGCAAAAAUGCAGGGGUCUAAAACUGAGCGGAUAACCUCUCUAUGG RNA 2: GGGAAUGGAUCCACAUCUACGAAUUCGUACCUAUAGAGAGGUUAUACCGCUCACCGAGAUCGGAAGAGCACACGU reads 48

The measured Kd associated with target 2 MT 5'PFS GGU 3'PFS CAG (mixed) RNA 1: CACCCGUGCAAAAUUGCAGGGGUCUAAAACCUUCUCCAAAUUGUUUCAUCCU RNA 2: GGGAAUGGAUCCACAUCUACGAAUUCGGUAGGAUGAAACAAUUUGGAGAAGCAGAGAUCGGAAGAGCACACGU reads 13

The measured Kd associated with target 3 insA 3' of 3,insU 3' of 3 (mixed) RNA 1: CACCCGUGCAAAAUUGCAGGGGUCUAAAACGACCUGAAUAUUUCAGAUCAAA RNA 2: GGGAAUGGAUCCACAUCUACGAAUUCGUUUUUGAUCUGAAAUAUUCAGGAUUCUGCAGAUCGGAAGAGCACACGU reads 27.9

The measured Kd associated with target 2 MT 5'PFS AAG 3'PFS AAU (mixed) RNA 1: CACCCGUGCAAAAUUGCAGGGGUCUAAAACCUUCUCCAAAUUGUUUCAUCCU RNA 2: GGGAAUGGAUCCACAUCUACGAAUUCAAGAGGAUGAAACAAUUUGGAGAAGAAUAGAUCGGAAGAGCACACGU reads 3.1

The measured Kd associated with target 3 U2A,U8G (mixed) RNA 1: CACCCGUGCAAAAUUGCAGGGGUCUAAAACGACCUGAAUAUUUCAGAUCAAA RNA 2: GGGAAUGGAUCCACAUCUACGAAUUCGUUUUUGAUCUGAAAUAGUCAGGACUGCAGAUCGGAAGAGCACACGU reads 29.8

The measured Kd associated with target 1 C2U,U11A (mixed) RNA 1: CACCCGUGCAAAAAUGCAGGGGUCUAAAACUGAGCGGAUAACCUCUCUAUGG RNA 2: GGGAAUGGAUCCACAUCUACGAAUUCGUACCAUAGAGAGGAUAUCCGCUUACCGAGAUCGGAAGAGCACACGU reads 29.5

The measured Kd associated with target 1 MT 5'PFS GUU 3'PFS CGC (mixed) RNA 1: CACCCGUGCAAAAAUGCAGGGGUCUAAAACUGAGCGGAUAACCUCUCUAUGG RNA 2: GGGAAUGGAUCCACAUCUACGAAUUCGUUCCAUAGAGAGGUUAUCCGCUCACGCAGAUCGGAAGAGCACACGU reads 19.8

The measured Kd associated with target 1 insG 3' of 8,insG 3' of 7 (mixed) RNA 1: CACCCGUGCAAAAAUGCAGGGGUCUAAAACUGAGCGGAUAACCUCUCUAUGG RNA 2: GGGAAUGGAUCCACAUCUACGAAUUCGUACCAUAGAGAGGUUAUGCGCGCUCACCGAGAUCGGAAGAGCACACGU reads 8.24

The measured Kd associated with target 1 U3C,C21U (mixed) RNA 1: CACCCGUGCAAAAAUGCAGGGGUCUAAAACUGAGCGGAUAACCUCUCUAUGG RNA 2: GGGAAUGGAUCCACAUCUACGAAUUCGUACUAUAGAGAGGUUAUCCGCCCACCGAGAUCGGAAGAGCACACGU reads 27

The measured Kd associated with target 1 MT 5'PFS GGA 3'PFS GGG (mixed) RNA 1: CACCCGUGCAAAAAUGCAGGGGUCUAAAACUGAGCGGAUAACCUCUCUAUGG RNA 2: GGGAAUGGAUCCACAUCUACGAAUUCGGACCAUAGAGAGGUUAUCCGCUCAGGGAGAUCGGAAGAGCACACGU reads 54
